Reference for the values: patent US20260234115A1

Assay: Dynamic light scattering: LNP particle size and PDI
Type: physicochemical
Settings: LNP, Formulation F2, N/P 6
Experimental: Lipids and active ingredients (e.g., RNA, DNA, etc.) were assembled into LNPs using microfluidic mixing. […] LNPs were diluted with PBS pH 7.4 to predetermined dilution ranges based on the process step and LNP concentration. Following mixing, the particle size and PDI were measured by a dynamic light scattering instrument.
metric: Size (nm) N/P:6
Numbers only, in nm.

The examples below pair each entry with its known result.
| compound | metric | measurementUnit | measuredValue |
| --- | --- | --- | --- |
| CCCCC/C=C\CCOC(=O)CCCCCCC(=O)OCC(COC(=O)CCCCCCC(=O)OCC/C=C\CCCCC)(COC(=O)CCC(CCCCCC)OC(=O)NCCN1CCCC1)COC(=O)CC12CC3CC(CC(C3)C1)C2 (stereo not drawn) [Compound 11] | Size (nm) N/P:6 | nm | 88 |
| CCCCCCCC/C=C\CCCCCCCC(=O)OCC(COC(=O)CCCCCCC/C=C\CCCCCCCC)(COC(=O)CCC(CCCCCC)OC(=O)NCCN1CCCC1)COC(=O)CCC(OCCCCCCCC)OCCCCCCCC (stereo not drawn) [Compound 4] | Size (nm) N/P:6 | nm | 93 |

--- query ---
Query: What does the record list as Size (nm) N/P:6 for CCCCC/C=C\CCOC(=O)CCCCCC(=O)OCC(COC(=O)CCCCCC(=O)OCC/C=C\CCCCC)(COC(=O)CCC(CCCCCC)OC(=O)NCCN1CCCC1)COC(=O)CCC(OCCCCCCCC)OCCCCCCCC (stereo not drawn) [Compound 9] ?
Response: 76
